// values below are reported T/C
Test system: MX-1 breast xenograft, nude mice, tumor weight T/C
test-description: NCI In Vivo Anticancer Drug Screen. Data for tumor model Human Mammary Carcinoma MX-1 Xenograft (intrarenal inoculation) in NU/NU Swiss (nude) mice
run-parameters: endpoint: mean tumor weight change; dose: 1.0 mg/kg/injection; schedule: Q04DX003 (sc); vehicle: saline + alcohol; higher = larger tumour
Inconclusive results are not listed. *1 amine or outer side, *2 acyl side, *3 side chain or, on linkers, in order; H or OH if unused. Where a SMILES comes first, the peptide text is derived from it. Bridges are numbered along the chain shown (N, C = ends). Roman numbers before positions name the chains, in order. [ ]: non-standard residue; d: D form. Actinocin(1to9) = Cc1c2oc3c(C)ccc(C(=O)[*:2])c3nc-2c(C(=O)[*:1])c(N)c1=O; NMeV = CN[CH](C(=O)O)C(C)C; Aze = O=C(O)[CH]1CCN1; Sar = CNCC(=O)O

CCC/C=C/C=C/C(=O)OC1/C(=C/C(=O)OC)CC2CC(C(C)O)OC(=O)CC(O)CC3CC(OC(C)=O)C(C)(C)C(O)(CC4C/C(=C/C(=O)OC)CC(/C=C/C(C)(C)C1(O)O2)O4)O3 (centres undefined) = 70 % of control
COC1/C=C/C=C(/C)Cc2cc(O)c(Cl)c(c2)N(C)C(=O)CC(OC(=O)C(C)C)C2(C)OC2C(C)C2CC1(O)NC(=O)O2 (centres undefined) = 95 % of control

input: Need T/C, item Cc1c2oc3c(C)ccc(C(=O)NC4C(=O)NC(C(C)C)C(=O)N5CCCC5C(=O)N(C)CC(=O)N(C)C(C(C)C)C(=O)OC4C)c3nc-2c(C(=O)NC2C(=O)NC(C(C)C)C(=O)N3CCC3C(=O)N(C)CC(=O)N(C)C(C(C)C)C(=O)OC2C)c(N)c1=O (centres undefined) (I: TV[Aze][Sar][NMeV] / II: TVP[Sar][NMeV]; ester I:1-I:C, II:1-II:C; linker I:N-II:N via Actinocin(1to9); configuration not given here)
output: -80 % of control

input: How about this compound: "COC(=O)[C@@]12OC[C@]34[C@H]([C@@H](O)[C@@H]1O)[C@@]1(C)CC(=O)C(O)=C(C)[C@@H]1C[C@H]3OC(=O)[C@H](OC(=O)/C=C(\C)C(C)C)[C@@H]24"
output: 100 % of control

Just for reference, PubChem BioAssay AID296 is where these values come from.
